The measured values listed here are drawn from the NIST ThermoML archive (doi:10.1021/je4004299).

- condition parameters: 333.15 K; 101.33 kPa; Liquid; Vibrating tube method
Known mass density of a selection of compounds
Reply numerically in kg/m3, unit not repeated.

Example entries and their recorded answers appear below.
CCCC[n+]1ccn(C)c1.O=C([O-])c1ccccc1 [3-butyl-1-methylimidazolium benzoate]    1083.46
CC(O)C(=O)[O-].CCCCn1cc[n+](C)c1 [1-butyl-3-methylimidazolium lactate]    1076.42
CCCCn1cc[n+](C)c1.NCC(=O)[O-] [1-butyl-3-methylimidazolium glycinate]    1107.1

--- query ---
Look up mass density for this compound: CCCCn1cc[n+](C)c1.O=C([O-])CO [1-butyl-3-methylimidazolium glycolate]
1104.3
